Data credit: the kinase profiling compilation of Christmann-Franck et al. (2016)

target: STK17B (human); test: KINOMEscan competition binding; conditions: compound 10.0 µM
parameter: kinase still bound, per cent of control (%)
Express it in %; write the number only.

Briefly, kinase still bound, per cent of control measured for "CCN1CCN(Cc2ccc(NC(=O)c3ccc(C)c(/C=C/c4cnc5[nH]ccc5c4OC)c3)cc2C(F)(F)F)CC1" : 1

Briefly, kinase still bound, per cent of control measured for "C=CC(=O)Nc1ccc(C(=O)c2sc(Nc3ccc(N4CCN(C)CC4)cc3OC)nc2N)cc1" : 100

Briefly, kinase still bound, per cent of control measured for "Cc1cn(-c2cc(C(=O)Nc3ccc(C)c(NC(=O)c4ccno4)c3)cc(C(F)(F)F)c2)cn1" : 100

Briefly, kinase still bound, per cent of control measured for "N#Cc1cc(-c2ccnc(Nc3ccc(-n4cnc(-c5cccnc5)n4)cc3)n2)cc(N2CCOCC2)c1" : 56

Briefly, kinase still bound, per cent of control measured for COc1cc(C)c(Sc2cnc(NC(=O)c3ccc(CNC(C)C(C)C)cc3)s2)cc1C(=O)N1CCN(C(C)=O)CC1 (centres undefined) : 100

Briefly, kinase still bound, per cent of control measured for "CCc1nc(-c2cccc(C)c2)c(-c2ccnc(NC(=O)c3ccccc3)c2)s1" : 91

Briefly, kinase still bound, per cent of control measured for "COc1cc2c(Nc3ccc(NC(=O)c4ccccc4)cc3)ncnc2cc1OCCCN1CCOCC1" : 100

Briefly, kinase still bound, per cent of control measured for "CCN(CCO)CCCOc1ccc2c(Nc3cc(CC(=O)Nc4cccc(F)c4)[nH]n3)ncnc2c1" : 93

Briefly, kinase still bound, per cent of control measured for "CNC(=O)Nc1ccc(-c2nc(N3CC4CCC(C3)O4)c3cnn(C4CCC5(CC4)OCCO5)c3n2)cc1" : 100

###

target: PRKCH (human) (UniProt P24723); test: KINOMEscan competition binding; settings: compound 10.0 µM
Sequence (P24723 whole entry, looked up): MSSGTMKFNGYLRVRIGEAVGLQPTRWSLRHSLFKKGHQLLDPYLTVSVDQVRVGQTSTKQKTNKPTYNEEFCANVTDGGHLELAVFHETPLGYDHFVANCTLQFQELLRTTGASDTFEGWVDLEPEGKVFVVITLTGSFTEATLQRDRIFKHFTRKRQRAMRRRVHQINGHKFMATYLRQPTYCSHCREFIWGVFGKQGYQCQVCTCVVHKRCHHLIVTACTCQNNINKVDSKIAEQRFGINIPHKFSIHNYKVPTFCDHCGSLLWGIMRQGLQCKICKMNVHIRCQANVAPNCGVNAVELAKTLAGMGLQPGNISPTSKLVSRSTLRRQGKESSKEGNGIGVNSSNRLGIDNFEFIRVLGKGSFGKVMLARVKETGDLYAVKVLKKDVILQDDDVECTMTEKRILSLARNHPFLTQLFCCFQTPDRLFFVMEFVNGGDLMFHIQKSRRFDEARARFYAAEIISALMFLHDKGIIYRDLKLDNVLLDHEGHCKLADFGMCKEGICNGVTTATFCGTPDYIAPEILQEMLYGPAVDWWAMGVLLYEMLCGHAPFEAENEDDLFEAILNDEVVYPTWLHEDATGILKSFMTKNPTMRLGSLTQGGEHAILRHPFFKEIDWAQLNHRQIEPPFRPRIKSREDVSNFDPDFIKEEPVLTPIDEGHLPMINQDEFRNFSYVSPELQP
parameter: kinase still bound, per cent of control (%)
Express it in %; write the number only.

Briefly, kinase still bound, per cent of control measured for CC1=C(C(=O)Nc2cc3cn[nH]c3cc2F)C(c2ccc(C(F)(F)F)cc2)CC(=O)N1 (centres undefined) : 35

Briefly, kinase still bound, per cent of control measured for "N#C/C(=C1/Nc2ccccc2S1)c1ccnc(NCCc2cccnc2)n1" : 100

Briefly, kinase still bound, per cent of control measured for "CCc1nc(-c2cccc(C)c2)c(-c2ccnc(NC(=O)c3ccccc3)c2)s1" : 88

Briefly, kinase still bound, per cent of control measured for COc1cc(C)c(Sc2cnc(NC(=O)c3ccc(CNC(C)C(C)C)cc3)s2)cc1C(=O)N1CCN(C(C)=O)CC1 (centres undefined) : 100

Briefly, kinase still bound, per cent of control measured for "COc1cc2ncnc(Nc3cccc(Cl)c3)c2cc1OC" : 100

Briefly, kinase still bound, per cent of control measured for "COc1ccc(N(C(=O)Oc2cc(C(=O)Nc3cccc(C(F)(F)F)c3)ccc2C)c2ccnc(Nc3ccc(N4CCN(C)CC4)cc3)n2)c(OC)c1" : 100

Briefly, kinase still bound, per cent of control measured for "COc1cc(N2CCC(C(N)=O)CC2)ccc1Nc1nc(N)c(Cl)c(Nc2ccccc2S(=O)(=O)C(C)C)n1" : 100

Briefly, kinase still bound, per cent of control measured for "CCCS(=O)(=O)Nc1ccc(F)c(C(=O)c2c[nH]c3ncc(Cl)cc23)c1F" : 100

Briefly, kinase still bound, per cent of control measured for "COc1cc2c(Nc3ccc(NC(=O)c4ccccc4)cc3)ncnc2cc1OCCCN1CCOCC1" : 100

###

molecular target: STK11 (human); assay: KINOMEscan competition binding; conditions: compound 10.0 µM
parameter: kinase still bound, per cent of control (%)
Express it in %; write the number only.

Briefly, kinase still bound, per cent of control measured for "CC(=O)c1c(C)c2cnc(Nc3ccc(N4CCNCC4)cn3)nc2n(C2CCCC2)c1=O" : 82

Briefly, kinase still bound, per cent of control measured for "CCN(CCO)CCCOc1ccc2c(Nc3cc(CC(=O)Nc4cccc(F)c4)[nH]n3)ncnc2c1" : 80

Briefly, kinase still bound, per cent of control measured for "N#Cc1cc(-c2ccnc(Nc3ccc(-n4cnc(-c5cccnc5)n4)cc3)n2)cc(N2CCOCC2)c1" : 11

Briefly, kinase still bound, per cent of control measured for "N#C/C(=C1/Nc2ccccc2S1)c1ccnc(NCCc2cccnc2)n1" : 77

Briefly, kinase still bound, per cent of control measured for "Cc1cn(-c2cc(C(=O)Nc3ccc(C)c(NC(=O)c4ccno4)c3)cc(C(F)(F)F)c2)cn1" : 100

###

biological target: UniProt P49761; assay: KINOMEscan competition binding; conditions: compound 10.0 µM
Sequence (P49761 whole entry, looked up): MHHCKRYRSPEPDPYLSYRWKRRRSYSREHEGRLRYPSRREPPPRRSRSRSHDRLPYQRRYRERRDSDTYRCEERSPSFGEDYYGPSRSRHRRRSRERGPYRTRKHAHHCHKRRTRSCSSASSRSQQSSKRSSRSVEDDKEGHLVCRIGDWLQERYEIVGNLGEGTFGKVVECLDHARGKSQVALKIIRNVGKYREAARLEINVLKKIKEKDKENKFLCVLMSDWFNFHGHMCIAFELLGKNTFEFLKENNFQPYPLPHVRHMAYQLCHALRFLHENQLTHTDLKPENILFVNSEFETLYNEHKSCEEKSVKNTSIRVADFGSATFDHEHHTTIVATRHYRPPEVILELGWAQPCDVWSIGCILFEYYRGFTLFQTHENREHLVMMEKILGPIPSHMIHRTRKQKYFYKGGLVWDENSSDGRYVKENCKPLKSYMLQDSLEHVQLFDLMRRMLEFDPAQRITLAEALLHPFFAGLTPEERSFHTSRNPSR
Please go through the items and note down their kinase still bound, per cent of control.
Express it in %; write the number only.

Briefly, kinase still bound, per cent of control measured for "N#C/C(=C1/Nc2ccccc2S1)c1ccnc(NCCc2cccnc2)n1" : 76

Briefly, kinase still bound, per cent of control measured for "COc1cc2ncnc(Nc3cccc(Cl)c3)c2cc1OC" : 100

Briefly, kinase still bound, per cent of control measured for "C=CC(=O)Nc1ccc(C(=O)c2sc(Nc3ccc(N4CCN(C)CC4)cc3OC)nc2N)cc1" : 8.9

Briefly, kinase still bound, per cent of control measured for "Cc1cn(-c2cc(C(=O)Nc3ccc(C)c(NC(=O)c4ccno4)c3)cc(C(F)(F)F)c2)cn1" : 100

Briefly, kinase still bound, per cent of control measured for "CCOc1cc(N2CCC(O)CC2)ccc1Nc1ncc2c(n1)N(C)c1ccccc1C(=O)N2C" : 100

Briefly, kinase still bound, per cent of control measured for "O=c1[nH]c2ccccc2n1C1CCN(Cc2ccc(-c3nc4cc5[nH]cnc5cc4nc3-c3ccccc3)cc2)CC1" : 100

Briefly, kinase still bound, per cent of control measured for "N#Cc1cc(-c2ccnc(Nc3ccc(-n4cnc(-c5cccnc5)n4)cc3)n2)cc(N2CCOCC2)c1" : 59

Briefly, kinase still bound, per cent of control measured for "COc1ccc(N(C(=O)Oc2cc(C(=O)Nc3cccc(C(F)(F)F)c3)ccc2C)c2ccnc(Nc3ccc(N4CCN(C)CC4)cc3)n2)c(OC)c1" : 100

Briefly, kinase still bound, per cent of control measured for "COc1cc(N2CCC(C(N)=O)CC2)ccc1Nc1nc(N)c(Cl)c(Nc2ccccc2S(=O)(=O)C(C)C)n1" : 8.3

###

biological target: STK38L (human) (UniProt Q9Y2H1); assay: KINOMEscan competition binding; settings: compound 10.0 µM
Sequence (Q9Y2H1 whole entry, looked up): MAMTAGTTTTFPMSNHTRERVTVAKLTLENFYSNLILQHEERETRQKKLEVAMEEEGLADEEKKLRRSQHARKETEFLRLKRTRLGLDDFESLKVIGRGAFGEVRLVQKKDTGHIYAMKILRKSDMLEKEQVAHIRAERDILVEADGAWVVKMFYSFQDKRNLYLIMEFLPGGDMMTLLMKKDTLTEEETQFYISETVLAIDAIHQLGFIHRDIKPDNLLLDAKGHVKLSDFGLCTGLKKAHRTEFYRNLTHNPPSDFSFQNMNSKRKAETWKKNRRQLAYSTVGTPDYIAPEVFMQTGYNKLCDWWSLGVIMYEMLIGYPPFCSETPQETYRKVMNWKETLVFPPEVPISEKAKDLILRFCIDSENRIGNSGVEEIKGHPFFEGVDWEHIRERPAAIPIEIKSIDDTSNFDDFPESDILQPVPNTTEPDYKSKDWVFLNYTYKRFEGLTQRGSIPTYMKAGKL
Please go through the items and note down their kinase still bound, per cent of control.
Express it in %; write the number only.

Briefly, kinase still bound, per cent of control measured for "COc1cc2ncnc(Nc3cccc(Cl)c3)c2cc1OC" : 87

Briefly, kinase still bound, per cent of control measured for "CCOc1cc(N2CCC(O)CC2)ccc1Nc1ncc2c(n1)N(C)c1ccccc1C(=O)N2C" : 100

Briefly, kinase still bound, per cent of control measured for "CCc1nc(-c2cccc(C)c2)c(-c2ccnc(NC(=O)c3ccccc3)c2)s1" : 96

Briefly, kinase still bound, per cent of control measured for "C=CC(=O)Nc1ccc(C(=O)c2sc(Nc3ccc(N4CCN(C)CC4)cc3OC)nc2N)cc1" : 68

Briefly, kinase still bound, per cent of control measured for "CCCS(=O)(=O)Nc1ccc(F)c(C(=O)c2c[nH]c3ncc(Cl)cc23)c1F" : 71

Briefly, kinase still bound, per cent of control measured for "N#Cc1cc(-c2ccnc(Nc3ccc(-n4cnc(-c5cccnc5)n4)cc3)n2)cc(N2CCOCC2)c1" : 100

Briefly, kinase still bound, per cent of control measured for "COc1cc2c(Nc3ccc(NC(=O)c4ccccc4)cc3)ncnc2cc1OCCCN1CCOCC1" : 100

Briefly, kinase still bound, per cent of control measured for "O=c1[nH]c2ccccc2n1C1CCN(Cc2ccc(-c3nc4cc5[nH]cnc5cc4nc3-c3ccccc3)cc2)CC1" : 82

###

target: CDK9 (human); assay: KINOMEscan competition binding; conditions: compound 10.0 µM
parameter: kinase still bound, per cent of control (%)
Express it in %; write the number only.

Briefly, kinase still bound, per cent of control measured for "C=CC(=O)Nc1ccc(C(=O)c2sc(Nc3ccc(N4CCN(C)CC4)cc3OC)nc2N)cc1" : 85

Briefly, kinase still bound, per cent of control measured for "CCc1nc(-c2cccc(C)c2)c(-c2ccnc(NC(=O)c3ccccc3)c2)s1" : 95

Briefly, kinase still bound, per cent of control measured for "COc1cc2ncnc(Nc3cccc(Cl)c3)c2cc1OC" : 100

Briefly, kinase still bound, per cent of control measured for "CCN1CCN(Cc2ccc(NC(=O)c3ccc(C)c(/C=C/c4cnc5[nH]ccc5c4OC)c3)cc2C(F)(F)F)CC1" : 96

Briefly, kinase still bound, per cent of control measured for "COc1cc2c(Nc3ccc(NC(=O)c4ccccc4)cc3)ncnc2cc1OCCCN1CCOCC1" : 100

Briefly, kinase still bound, per cent of control measured for "N#C/C(=C1/Nc2ccccc2S1)c1ccnc(NCCc2cccnc2)n1" : 60

Briefly, kinase still bound, per cent of control measured for "N#Cc1cc(-c2ccnc(Nc3ccc(-n4cnc(-c5cccnc5)n4)cc3)n2)cc(N2CCOCC2)c1" : 2.1

Briefly, kinase still bound, per cent of control measured for "CNC(=O)Nc1ccc(-c2nc(N3CC4CCC(C3)O4)c3cnn(C4CCC5(CC4)OCCO5)c3n2)cc1" : 100

Briefly, kinase still bound, per cent of control measured for "COc1ccc(N(C(=O)Oc2cc(C(=O)Nc3cccc(C(F)(F)F)c3)ccc2C)c2ccnc(Nc3ccc(N4CCN(C)CC4)cc3)n2)c(OC)c1" : 100

Briefly, kinase still bound, per cent of control measured for "COc1cc(N2CCC(C(N)=O)CC2)ccc1Nc1nc(N)c(Cl)c(Nc2ccccc2S(=O)(=O)C(C)C)n1" : 100

Briefly, kinase still bound, per cent of control measured for CC1=C(C(=O)Nc2cc3cn[nH]c3cc2F)C(c2ccc(C(F)(F)F)cc2)CC(=O)N1 (stereo not drawn) : 96

Briefly, kinase still bound, per cent of control measured for COc1cc(C)c(Sc2cnc(NC(=O)c3ccc(CNC(C)C(C)C)cc3)s2)cc1C(=O)N1CCN(C(C)=O)CC1 (stereo not drawn) : 100

Briefly, kinase still bound, per cent of control measured for "CCOc1cc(N2CCC(O)CC2)ccc1Nc1ncc2c(n1)N(C)c1ccccc1C(=O)N2C" : 100

Briefly, kinase still bound, per cent of control measured for "CCCS(=O)(=O)Nc1ccc(F)c(C(=O)c2c[nH]c3ncc(Cl)cc23)c1F" : 86

Briefly, kinase still bound, per cent of control measured for "O=c1[nH]c2ccccc2n1C1CCN(Cc2ccc(-c3nc4cc5[nH]cnc5cc4nc3-c3ccccc3)cc2)CC1" : 100

Briefly, kinase still bound, per cent of control measured for "CC(=O)c1c(C)c2cnc(Nc3ccc(N4CCNCC4)cn3)nc2n(C2CCCC2)c1=O" : 27

Briefly, kinase still bound, per cent of control measured for "Cc1cn(-c2cc(C(=O)Nc3ccc(C)c(NC(=O)c4ccno4)c3)cc(C(F)(F)F)c2)cn1" : 100

Briefly, kinase still bound, per cent of control measured for "CCN(CCO)CCCOc1ccc2c(Nc3cc(CC(=O)Nc4cccc(F)c4)[nH]n3)ncnc2c1" : 82
